Test Details: folding stability dG unfold from chymotrypsin proteolysis; higher = more stable
Use 3 kcal/mol as the dividing line for folding stability dG unfold, with the line itself on the true (1) side and lower values as false (0).

input: Hi, just wondering whether SAGGSAGGSAGGPFFMPEQKGTIPADELQKKGGNLTSVEIKVRPWMMELEIEIVYPPGDKSAGGSAGGSAGG [r7_116_TrROS] shows folding stability dG unfold of 3 kcal/mol or higher.
output: false (0)

input: folding stability dG unfold >= 3 kcal/mol for SAGGSAGGSASMKKKKFVVKTEEEAEKVIAELKAKVPKGTEVEIYIKNEDGTLEKYAIIKISAGGSAGGSAG [r3_92_JUSTAS] ?
output: true (1)

input: Hello, I need to know if SAGGSMVVTVSTDSTSEPTTVITITIPPELGNLTDEEKKAIAEEIAKKYPNTKFTFTPTTITITRKSAGGSA [r2_256_JUSTAS] has measured folding stability dG unfold not below 3 kcal/mol. Thanks!
output: false (0)

input: Would you say SAGGSVTLPDATVVKVPPSQDWQEHADRLAAEIREAGADYEVSVESTPDGSVLITITVPGRTWTMVTSAGGS [r16_771_JUSTAS] shows folding stability dG unfold at minimum 3 kcal/mol?
output: false (0)

input: Kindly determine if folding stability dG unfold recorded for SMKITATETPVGDKTTVTITVTIDPKEFPNKPPTEEFYKKIAEELMKKLGLKTYNISKTSSNTYTITIVDSA [r9_883_JUSTAS] is above or exactly 3 kcal/mol.
output: false (0)

input: Tell me whether folding stability dG unfold is at least 3 kcal/mol here: SAGGSAGGSKPKEIETVTLKLTLKDPETGEEIEVTVELTRVRVDGKEYLILRVTDPDGKEIELSAGGSAGGS [r12_283_TrROS_Hall]
output: true (1)

input: Reported folding stability dG unfold reaches at least 3 kcal/mol for SAGGSAGGSAGGKMYLIKVKVDGEEKLIKVKSLEEAKKLLEEKGYKIESVEIFEVEEEEESAGGSAGGSAGG [r7_726_TrROS_Hall] ?
output: true (1)
